- Target under test: His6-JNK2α1 (UniProt P45984-2 1-382)
- Experiment: fluorescence polarisation
TMR = 6-carboxytetramethylrhodamine
Measured parameter: pKd
Remember, pKd is on a log scale: it is -log10 of the molar concentration.

Query string: Output pKd of {TMR}-RPKRPTTLNLF-OH [TMR-JIPtide]
Result string: 4.77
